molecular target: HLA-A2 (on T2 cells) (human); assay: T2 cell binding assay, fluorescence index by flow cytometry

binder | T2 Binding (FI)
LITEKSRWSG (Synthetic 10-mer) [Modified 1 (modified BRAFV600E peptide LITEKSRWSG)] | 1 FI = (MFI peptide/MFI w/o peptide) - 1
LATEKSRWSV (Synthetic 10-mer) [Modified 7 (modified BRAFV600E peptide LATEKSRWSV)] | 1 FI = (MFI peptide/MFI w/o peptide) - 1

The reported numbers originate from patent US20220177548A1.
